// data source = ChEMBL document CHEMBL1130589

- targetOrTestSystem: Phosphodiesterase 4 (Homo sapiens, UniProt P27815+Q08499+Q07343+Q08493)
- test: Inhibition of phosphodiesterase 4
- Format: protein assay
1 if IC50 is below 2000 nM. -1 if not; exact matches included in -1.

These recorded examples may help you get a feel for the data.
CCCn1cc(C(=O)NCCc2ccncc2)c(=O)c2cc(C(F)(F)F)ccc21.Cl    1
CCn1cc(C(=O)NCCc2ccncc2)c(=S)c2cc(C(F)(F)F)ccc21    1
CCn1cc(C(=O)N(C)CCc2ccccc2)c(=O)c2cc(C(F)(F)F)ccc21    -1
CCn1cc(C(=O)NC2CCc3cc(OC)c(OC)cc32)c(=O)c2cc(C(F)(F)F)ccc21 (stereo unspecified)    1
CC1CCc2cc(F)cc3c(=O)c(C(=O)NCCc4ccncc4)cn1c23 (stereo unspecified)    -1
CCn1cc(C(=O)NCCc2ccncc2)c(=O)c2cc3c(cc21)OCO3    -1
CCn1cc(C(=O)NCCc2ccccc2)c(=O)c2cc(C(F)(F)F)ccc21    1
CCn1cc(C(=O)NC2CCc3cc(NC(C)=O)ccc32)c(=O)c2cnc(N3CCCC3)nc21 (stereo unspecified)    1
CCn1cc(C(=O)NCCc2ccncc2)c(=O)c2cc(C(F)(F)F)ccc21    1
CCn1cc(C(=O)N/N=C/c2ccccc2Cl)c(=O)c2cc(C(F)(F)F)ccc21    1

Now take the following compound into account.
Lab note: confirm whether the reported IC50 for this compound is below 2000 nM, equality not counting. compound: CCn1cc(C(=O)NCCc2ccncc2)c(=O)c2cnc(N3CCCC3)nc21
1
